# TGT: HIV-1 protease (Human immunodeficiency virus type 1 group M subtype B)
# Construct: The protease (or proteinase), consisting of only 99 amino acids, is among the smallest enzymes known
# METHOD: In vitro HIV protease inhibitory assay (HIV Protease FITC Assay)
# Type: biochemical
# APPLIED CONDITIONS: HIV-1 Dose 30.000 uM; read-out: HIV-1 Protease % Inhib
# inhibition at 30 µM values compiled below
Write the number in % without appending the unit.

Solved entries (count: 3):
[[record]]
molecule = "C=CC(C1=C(O)CC2(CCCC2)OC1=O)c1ccccc1 (centres unmarked)"
tgt = "HIV-1 protease (Human immunodeficiency virus type 1 group M subtype B)"
observed = 95.7

[[record]]
molecule = "CCC(CCCCl)c1cc(O)c(C(c2ccccc2)C2CC2)c(=O)o1 (centres unmarked)"
tgt = "HIV-1 protease (Human immunodeficiency virus type 1 group M subtype B)"
observed = 119

[[record]]
molecule = "CCC(Cc1cccc(OC)c1)c1cc(O)c(C(c2ccccc2)C2CC2)c(=O)o1 (centres unmarked)"
tgt = "HIV-1 protease (Human immunodeficiency virus type 1 group M subtype B)"
observed = 88.2


Which inhibition at 30 µM value is on record for O=c1oc(CCc2ccc(F)cc2)cc(O)c1C(c1ccccc1)C1CC1 (centres unmarked) ? 94.1

Which inhibition at 30 µM value is on record for CCC(Cc1cccc(Br)c1)c1cc(O)c(C(c2ccccc2)C2CC2)c(=O)o1 (centres unmarked) ? 95.1
